Field: EC50. Provide a value for each of the compounds that follow.
measuredOn: TRPML1 (Homo sapiens, UniProt Q9GZU1)
Construct: expressed in transfected cells; host or cells: HEK T-REx cells stably expressing GCaMP6f and TRPML1
Sequence (Q9GZU1 whole entry): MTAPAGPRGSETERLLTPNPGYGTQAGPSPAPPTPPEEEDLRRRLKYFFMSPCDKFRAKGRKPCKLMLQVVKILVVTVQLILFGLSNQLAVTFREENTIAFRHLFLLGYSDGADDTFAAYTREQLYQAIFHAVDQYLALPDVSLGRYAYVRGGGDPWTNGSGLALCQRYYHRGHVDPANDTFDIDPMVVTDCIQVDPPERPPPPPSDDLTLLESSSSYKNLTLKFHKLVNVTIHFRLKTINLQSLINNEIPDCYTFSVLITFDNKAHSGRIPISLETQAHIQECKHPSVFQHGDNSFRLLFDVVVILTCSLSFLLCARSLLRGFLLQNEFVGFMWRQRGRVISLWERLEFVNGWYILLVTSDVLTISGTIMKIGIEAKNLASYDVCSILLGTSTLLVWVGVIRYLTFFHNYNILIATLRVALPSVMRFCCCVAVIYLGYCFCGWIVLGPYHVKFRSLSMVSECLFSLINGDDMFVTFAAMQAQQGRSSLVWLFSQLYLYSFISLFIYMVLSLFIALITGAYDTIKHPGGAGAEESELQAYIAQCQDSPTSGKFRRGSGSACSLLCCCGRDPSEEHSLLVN
procedureText: Cellular TRPML1 assay (FLIPR, GCaMP6f calcium read-out)
Format: cell-based
conditionDescription: HEKT-REx/GCaMP6f/TRPML1 cells, FLIPR TETRA, kinetic response over 300 seconds; read-out: TRPML1 FLIPR pEC50 (converted)

Qu. Would you kindly share the measured EC50 for "CCC1(CC)CN(c2nc(C(=O)Nc3cc(C)c(O[C@@H]4C[C@@H]5C[C@@H]5C4)c(F)c3)c(CN3CCCC3)o2)C1" ?
Ans. 1 to 10 µM

Qu. Would you kindly share the measured EC50 for Cc1cc(NC(=O)c2nc(N3CCCC3)oc2CC(F)(F)F)cc(F)c1N(C)C1CC2CC(C2)C1 (centres unmarked) ?
Ans. 10 to 100 µM

Qu. Would you kindly share the measured EC50 for "CCC1(CC)CN(c2nc(C(=O)Nc3cc(F)c(O[C@@H]4C[C@@H]5C[C@@H]5C4)c(F)c3)c(C)o2)C1" ?
Ans. 0.01 to 1 µM

Qu. Would you kindly share the measured EC50 for O=C(Nc1cc(F)c(OC2CC3C[C@@H]3C2)c(F)c1)c1nc(N2CC3CC2CO3)oc1CC(F)(F)F (some centres unmarked) ?
Ans. 1 to 10 µM

Qu. Would you kindly share the measured EC50 for CCC1(OC)CN(c2nc(C(=O)Nc3cc(F)c(OC4CC5CCC4C5)c(F)c3)c(CC(F)(F)F)o2)C1 (centres unmarked) ?
Ans. 0.01 to 1 µM

Qu. Would you kindly share the measured EC50 for "CC1(C)CCCN1c1nc(C(=O)Nc2cc(F)c(O[C@@H]3C[C@@H]4C[C@@H]4C3)c(F)c2)c(CC(F)(F)F)o1" ?
Ans. 0.01 to 1 µM

Qu. Would you kindly share the measured EC50 for "CCc1oc(N2CC(CC)(CO)C2)nc1C(=O)Nc1cc(F)c(O[C@@H]2C[C@@H]3C[C@@H]3C2)c(Cl)c1" ?
Ans. 0.01 to 1 µM

Qu. Would you kindly share the measured EC50 for "COC1(C)CN(c2nc(C(=O)Nc3ccc(O[C@@H]4C[C@@H]5C[C@@H]5C4)c(C#N)c3)c(CC(F)(F)F)o2)C1" ?
Ans. 1 to 10 µM

Qu. Would you kindly share the measured EC50 for CCc1oc(N2CCCC2)nc1C(=O)Nc1cc(C)c(NC2CC3CC(C3)C2)c(F)c1 (centres unmarked) ?
Ans. 1 to 10 µM

Qu. Would you kindly share the measured EC50 for O=C(Nc1ccc(O[C@@H]2CC3C[C@@H]3C2)c(F)c1)c1nc(N2CC3OCOC3C2)oc1CC(F)(F)F (some centres unmarked) ?
Ans. 0.01 to 1 µM

Qu. Would you kindly share the measured EC50 for "Cc1oc(N2CCCC2)nc1C(=O)Nc1ccc(N2CCCCC2)c(F)c1" ?
Ans. 1 to 10 µM

Qu. Would you kindly share the measured EC50 for "Cc1oc(N2CCCCC2)nc1C(=O)Nc1ccc(N2CCCCC2)c(F)c1" ?
Ans. 10 to 100 µM

Qu. Would you kindly share the measured EC50 for "O=C(Nc1cc(F)c(OCC23CC(C2)C3)c(F)c1)c1nc(N2CCCC2)oc1CC(F)(F)F" ?
Ans. 0.01 to 1 µM

Qu. Would you kindly share the measured EC50 for CC1CCCN1c1nc(C(=O)Nc2ccc(N3CCCCC3)c(F)c2)c(CC(F)(F)F)o1 (centres unmarked) ?
Ans. 1 to 10 µM

Qu. Would you kindly share the measured EC50 for "CCC1(CC)CN(c2nc(C(=O)Nc3cc(C)c(O[C@@H]4C[C@@H]5C[C@@H]5C4)c(F)c3)c(CC(F)(F)F)o2)C1" ?
Ans. 0.01 to 1 µM

Qu. Would you kindly share the measured EC50 for COC1(C)CN(c2nc(C(=O)Nc3cc(C)c(OC4CC5CC(C5)C4)c(F)c3)c(CCF)o2)C1 (centres unmarked) ?
Ans. 0.01 to 1 µM

Qu. Would you kindly share the measured EC50 for "Cc1cc(NC(=O)c2nc(N3CCCC3)oc2CN2CCC2)cc(F)c1O[C@@H]1C[C@@H]2C[C@@H]2C1" ?
Ans. 1 to 10 µM

Qu. Would you kindly share the measured EC50 for CCc1oc(N2CC3CCCC3C2)nc1C(=O)Nc1cc(F)c(OC2CC3C[C@H]3C2)c(F)c1 (some centres unmarked) ?
Ans. 0.01 to 1 µM

Qu. Would you kindly share the measured EC50 for COCc1oc(N2CC(C)(CO)C2)nc1C(=O)Nc1cc(C)c(OC2CC3CC(C3)C2)c(F)c1 (centres unmarked) ?
Ans. 0.01 to 1 µM

Qu. Would you kindly share the measured EC50 for "CCc1oc(N2CC(CC)(CC)C2)nc1C(=O)Nc1cc(F)c(O[C@@H]2C[C@@H]3C[C@@H]3C2)c(Cl)c1" ?
Ans. 0.01 to 1 µM

---

measuredOn: TRPML1 (Homo sapiens)
Construct: expressed in transfected cells; host or cells: HEK T-REx cells stably expressing GCaMP6f and TRPML1
procedureText: Cellular TRPML1 assay (FLIPR, GCaMP6f calcium read-out)
Type: cell-based
conditionDescription: HEKT-REx/GCaMP6f/TRPML1 cells, FLIPR TETRA, kinetic response over 300 seconds; read-out: TRPML1 FLIPR pEC50 (converted)
Description: Example A: Cellular TRPML1 Assay The final clone for the TRPML1 assay is HEKT-REx/GCaMP6f/TRPML1. GCaMP6f is a genetically encoded calcium indicator that is stably expressed in this cell line and used as a fluorescent read-out. Experiments were performed in 384 MTP format. […] Twenty-four hours later, cells are assayed for the response to various compounds using the Ca^2+ sensitive GCaMP6f protein stably expressed in the cells as readout. […]
Field: EC50. Provide a value for each of the molecules that follow.

Qu. Would you kindly share the measured EC50 for CCC1(CC)CN(c2nc(C(=O)Nc3cc(F)c(OC4CC5CC(C5)C4)c(F)c3)c(CCF)o2)C1 (stereo not shown) ?
Ans. 10 to 1000 nM

Qu. Would you kindly share the measured EC50 for O=C(Nc1ccc(OC2CCCC2(F)F)c(F)c1)c1nc(N2CCCC23CC3)oc1CC(F)(F)F (stereo not shown) ?
Ans. 1000 to 10000 nM

Qu. Would you kindly share the measured EC50 for "Cc1oc(N2CCOCC2)nc1C(=O)Nc1ccc(N2CCCCC2)c(F)c1" ?
Ans. 10000 to 100000 nM

Qu. Would you kindly share the measured EC50 for "O=C(Nc1ccc(N2CCC(F)(F)CC2)c(F)c1)c1nc(N2CC3(C2)CC(F)(F)C3)oc1CC(F)(F)F" ?
Ans. 1000 to 10000 nM

Qu. Would you kindly share the measured EC50 for CCc1oc(N2CC3CCOC3C2)nc1C(=O)Nc1cc(F)c(OC2CC3C[C@H]3C2)c(F)c1 (stereo partly shown) ?
Ans. 1000 to 10000 nM

Qu. Would you kindly share the measured EC50 for CC1(C)CN(c2nc(C(=O)Nc3cc(F)c(OC4CC5C[C@H]5C4)c(F)c3)c(CC(F)(F)F)o2)C1 (stereo partly shown) ?
Ans. 10 to 1000 nM

Qu. Would you kindly share the measured EC50 for "O=C(Nc1cc(F)c(O[C@@H]2C[C@@H]3C[C@@H]3C2)c(F)c1)c1nc(N2CC3(CCOC3)C2)oc1CC(F)(F)F" ?
Ans. 10 to 1000 nM

---

Field: EC50. Provide a value for each of the molecules that follow.
measuredOn: TRPML1 (Homo sapiens, UniProt Q9GZU1)
Construct: expressed in transfected cells; host or cells: HEK T-REx cells stably expressing GCaMP6f and TRPML1
procedureText: Cellular TRPML1 assay (FLIPR, GCaMP6f calcium read-out)
Assay type: cell-based
conditionDescription: HEKT-REx/GCaMP6f/TRPML1 cells, FLIPR TETRA, kinetic response over 300 seconds; read-out: TRPML1 FLIPR pEC50 (converted)

Qu. Would you kindly share the measured EC50 for COCc1oc(N2CCCC2)nc1C(=O)Nc1ccc(OC2CCCC2(F)F)c(F)c1 (stereo not shown) [Example 105] ?
Ans. 1000 to 10000 nM

Qu. Would you kindly share the measured EC50 for CC(C)OC1CN(c2nc(C(=O)Nc3ccc(OC4CCCC4(F)F)c(F)c3)c(CC(F)(F)F)o2)C1 (stereo not shown) [Example 24] ?
Ans. 1000 to 10000 nM

Qu. Would you kindly share the measured EC50 for CCc1oc(N2CC(CC)(CC)C2)nc1C(=O)Nc1cc(C)c(NC2CC3CC(C3)C2)c(F)c1 (stereo not shown) [Example 253] ?
Ans. 1000 to 10000 nM

Qu. Would you kindly share the measured EC50 for CCc1oc(N2CCC3(CC3)C2)nc1C(=O)Nc1cc(F)c(O[C@@H]2C[C@@H]3C[C@@H]3C2)c(F)c1 [Example 235] ?
Ans. 10 to 1000 nM

Qu. Would you kindly share the measured EC50 for O=C(Nc1cc(F)c(OC2CC3CC(C3)C2)c(F)c1)c1nc(N2CCCC2)oc1CC(F)(F)F (stereo not shown) [Example 169] ?
Ans. 10 to 1000 nM

Qu. Would you kindly share the measured EC50 for CCC1(OC)CN(c2nc(C(=O)Nc3cc(C)c(OC4CC5CC(C5)C4)c(F)c3)c(CCF)o2)C1 (stereo not shown) [Example 277] ?
Ans. 10 to 1000 nM

Qu. Would you kindly share the measured EC50 for Cc1oc(N2CCC(C)C2)nc1C(=O)Nc1ccc(N2CCCCC2)c(F)c1 (stereo not shown) [Example 122] ?
Ans. 10000 to 100000 nM

Qu. Would you kindly share the measured EC50 for O=C(Nc1cc(F)c(O[C@@H]2C[C@@H]3C[C@@H]3C2)c(F)c1)c1nc(N2CCC3COCC32)oc1CC(F)(F)F (stereo partly shown) [Example 144] ?
Ans. 10 to 1000 nM

Qu. Would you kindly share the measured EC50 for O=C(Nc1ccc(N2CCCCC2)c(F)c1)c1nc(N2CCC3(C2)CC(F)(F)C3)oc1CC(F)(F)F [Example 28] ?
Ans. 1000 to 10000 nM

Qu. Would you kindly share the measured EC50 for O=C(Nc1ccc(O[C@@H]2C[C@@H]3C[C@@H]3C2)c(F)c1)c1nc(N2CCC3CCCC32)oc1CC(F)(F)F (stereo partly shown) [Example 162] ?
Ans. 10 to 1000 nM

Provenance of the data: patent US12098145B2
